Test system: MOLT-4 leukemia
Assay: NCI-60 one-dose screen, 48 h (100 = growth as untreated, 0 = no growth, -100 = all killed)
Conditions: 10 µM unless noted
Compounds without any hit were thinned out: in the full panel of roughly 83,000, 20% have a hit.
Assign growth to each entry below.
Please reply with the bare figure in % and do not write the unit itself.

// growth lookup, key: NC(N)=Nc1ccc(Oc2cccc(NC(N)=Nc3ccc(I)cc3F)c2)cc1 78.9

// growth lookup, key: Nc1nc(-c2cccc([N+](=O)[O-])c2)c(N=Nc2ccc(Br)cc2)s1 29.5

// growth lookup, key: O=C(O)c1ccc(-n2cc(CNc3cccc(Cl)c3)c(-c3ccc(F)cc3)n2)cc1 80

---

Test system: HCT-116 colon
Assay: NCI-60 one-dose screen, 48 h
Settings: 10 µM unless noted
About 83,000 compounds went through this panel and 20% of them were active in at least one assay; those are over-represented in the sample as a whole. Active and inactive are the calls of the source. The calls were made as follows: active = growth percent below 10; inactive = the rest.
Pick from true for active, false for inactive when you respond.

GET /call?item= Clc1ccc(N/N=c2/oc3ccccc3cc2-c2cc3ccccc3[nH]2)cc1 returns the recorded outcome of this test. false

GET /call?item= O=C(Nc1ccc(N=Cc2c(O)[nH]c3ccccc23)cc1)Nc1nccs1 returns the recorded outcome of this test. false

GET /call?item= COc1ccc([C@@H]2[C@@H](O)C(=O)N2c2cc(OC)c(OC)c(OC)c2)cc1F returns the recorded outcome of this test. true

GET /call?item= COc1ccc(/C=C/C(=O)c2cccc(NC(=O)CSc3nc4ccccc4c(=O)n3-c3ccccc3)c2)cc1OC returns the recorded outcome of this test. false

---

Test system: MOLT-4 leukemia
Experiment: NCI-60 one-dose screen, 48 h (100 = growth as untreated, 0 = no growth, -100 = all killed)
Conditions: 10 µM unless noted
Compounds without any hit were thinned out: in the full panel of roughly 83,000, 20% have a hit. Active and inactive are the calls of the source. Rule for the calls: active = growth percent below 10; inactive = the rest.
attribute_measured: growth

// growth lookup, key: COc1cc(OC)cc(C(=O)Nc2cccc(C#Cc3cccc4[nH]nc(N)c34)c2)c1 20.5% (inactive)

// growth lookup, key: COc1cc(OC)c(S(N)(=O)=O)cc1C(=O)/C=C/c1ccc(Cl)cc1 3.62% (active)

// growth lookup, key: Cn1cc(CNc2nc3ccc(OC/C(=C/F)CN)cc3o2)ccc1=O 104% (inactive)

// growth lookup, key: C=CCn1c(SCC(=O)Nc2ccc(C(=O)/C=C/c3ccc(Br)cc3)cc2)nnc1-c1c[nH]c2ccccc12 66.3% (inactive)

// growth lookup, key: O=S(=O)(NCCCNc1nccc(-c2[nH]c(-c3ccccc3)nc2-c2ccc(Cl)c(O)c2)n1)c1cccc2ccccc12 18.7% (inactive)

// growth lookup, key: Cc1cccc2c3c(sc12)C(c1ccc(Cl)cc1)c1c(nc(CC(=O)Nc2ccccc2)[nH]c1=O)O3 (stereo not given) 83.4% (inactive)

// growth lookup, key: O=S(=O)(Nc1ccc(I)cc1Cl)c1ccc(-c2cnc(C3CC3)o2)cc1 45% (inactive)

// growth lookup, key: Cc1cc(C)n(C(=O)c2sc(=S)n(-c3ccccc3)c2N=Nc2c(N)n[nH]c2N)n1 105% (inactive)

// growth lookup, key: CC(c1ccccc1)N1CSc2nc3ncncc3n2C1 (stereo not given) 18.2% (inactive)

// growth lookup, key: O=C(CSc1nc2ccccc2c(=O)n1-c1ccccc1)Nc1ccc(-c2nc3ccc([N+](=O)[O-])cc3[nH]2)cc1 20.4% (inactive)

// growth lookup, key: O=C(NNc1nc2cc(F)ccc2n2c(CN3CC4CNCC4C3)ccc12)c1cnccn1 (stereo not given) 5.6% (active)

// growth lookup, key: Cc1ccc(-n2cc(/C=N/NC(=O)c3ccncc3)c(-c3ccc(S(C)(=O)=O)cc3)n2)cc1 70.4% (inactive)

// growth lookup, key: O=S(=O)(NCCNc1nccc(-n2cnc3ccccc32)n1)c1ccc(Cl)cc1 103% (inactive)

// growth lookup, key: Cc1nn(-c2ccccc2)c2ncnc(N/N=C/c3ccccc3O)c12 14.3% (inactive)

// growth lookup, key: NC(N)=Nc1ccc(Oc2cccc(NC(N)=Nc3ccc(Cl)c(C(F)(F)F)c3)c2)cn1 23.6% (inactive)

// growth lookup, key: O=C1/C(=C/C=C/c2ccco2)SC(=S)N1C1CCCCC1 90.5% (inactive)

// growth lookup, key: CCOc1ccccc1NC1=C(Cl)C(=O)c2nc(C)ccc2C1=O -24.9% (active)

// growth lookup, key: C=C=COc1cccc(/C(N)=N/C(N)=N/c2nc3ccccc3s2)c1 47.4% (inactive)

// growth lookup, key: C#CCNC1CCC(c2csc(C#C)n2)=C1C (stereo not given) 84.7% (inactive)

// growth lookup, key: COc1ccc2[nH]cc(-c3csc4nc(-c5ccccc5)cn34)c2c1 19.7% (inactive)

---

Tested on: 786-0 renal
Assay: NCI-60 one-dose screen, 48 h (100 = growth as untreated, 0 = no growth, -100 = all killed)
Conditions: 10 µM unless noted
Compounds without any hit were thinned out: in the full panel of roughly 83,000, 20% have a hit.
Rule: growth below 70% gives Yes. Equal to or above 70% gives No.

Could you please tell me whether growth recorded for COc1ccc(S(=O)(=O)NCCCNc2nccc(-c3[nH]c(-c4ccccc4)nc3-c3ccc(Cl)c(O)c3)n2)cc1 is less than 70%? No

Could you please tell me whether growth recorded for COc1cc(-c2nnc(SCc3ccc(O)c4ncccc34)n2-c2ccccc2)cc(OC)c1OC is less than 70%? Yes

Could you please tell me whether growth recorded for CCOC(=O)C(=O)CC(=O)N1C(=S)NC(=O)C1CC(C)C (stereo unspecified) is less than 70%? No

Could you please tell me whether growth recorded for CCCCCc1ccc(S(=O)(=O)Nc2cccc(-c3csc(NC(=O)CCCCCN4CCN(C)CC4)n3)c2)cc1 is less than 70%? Yes

Could you please tell me whether growth recorded for CN(C)C(=O)c1cc(-c2ccc3ncnc(NCc4ccccc4)c3c2)cnc1N is less than 70%? Yes

Could you please tell me whether growth recorded for O=C1/C(=C/C=C/c2ccco2)SC(=S)N1C1CCCCC1 is less than 70%? No

---

System: NCI-H460 lung
Test: NCI-60 one-dose screen, 48 h (100 = growth as untreated, 0 = no growth, -100 = all killed)
Conditions: 10 µM unless noted
The panel holds about 83,000 compounds, 20% with a hit somewhere; the sample as a whole holds those more often.
attribute_measured: growth (%)
Please reply with the bare figure in % and do not write the unit itself.

// growth lookup, key: COc1cc(-c2nc3sccn3c2-c2ccnc(S(C)(=O)=O)n2)ccc1F 100

// growth lookup, key: c1cn2c(ccc3nc(-c4cn[nH]c4)c4c(c32)CCCC4)n1 43.9

// growth lookup, key: CS(=O)(=O)c1ccc(-c2nn(-c3ccccc3)cc2/C=N/NC(=O)c2nc(N)n[nH]2)cc1 83

// growth lookup, key: CC(=O)C1=C(C)NC(NN)=NC1c1cccc(Cl)c1 (stereo unspecified) 112

// growth lookup, key: C=C1CC[C@@H]2[C@](C)(CO)[C@H](O)CC[C@@]2(C)[C@@H]1C/C(O)=C1\CCOC1=O 103

// growth lookup, key: C=CCn1c(SCC(=O)Nc2ccc(C(=O)/C=C/c3ccc(Cl)cc3)cc2)nnc1-c1c[nH]c2ccccc12 95.1

---

System: RXF 393 renal
Experiment: NCI-60 one-dose screen, 48 h (100 = growth as untreated, 0 = no growth, -100 = all killed)
Settings: 10 µM unless noted
This is part of a sample that, as a whole, favours compounds with a hit. Of some 83,000 tested, about 20% had one in any assay.
Criterion: growth meeting or surpassing 80%. Met: 1. Not met: 0.

Decide: is the reported value of growth for CCO/C=N/C1=C(C#N)C(c2ccc(OC)cc2)c2sc3c(C)cccc3c2O1 (stereo not drawn) equal to or greater than 80%? 0

Decide: is the reported value of growth for CC(O)c1cc2ccccc2c(=O)o1 (stereo not drawn) equal to or greater than 80%? 1

Decide: is the reported value of growth for Cc1cc(C(NC(=O)CCCCCNc2cccc3c2C(=O)N(C2CCC(=O)NC2=O)C3=O)c2ccc3c(c2)OC(F)(F)O3)c(O)c2ncccc12 (stereo not drawn) equal to or greater than 80%? 1

Decide: is the reported value of growth for Brc1ccccc1/C=N/Nc1nc(N/N=C/c2ccccc2Br)nc(N2CCOCC2)n1 equal to or greater than 80%? 0

Decide: is the reported value of growth for Cc1ccc(C2=Nn3c(nnc3-c3ccccc3)SC2)cc1 equal to or greater than 80%? 0

Decide: is the reported value of growth for CC1=NC2=NN3C(=NN2C(c2ccccc2)=C1)N=NC(c1ccc(Br)cc1)=C3c1ccc(Br)cc1 equal to or greater than 80%? 1

Decide: is the reported value of growth for COc1ccc(C(=O)CSc2nc3c(c(Nc4ccc(S(N)(=O)=O)cc4)n2)CCCC3)cc1 equal to or greater than 80%? 1

Decide: is the reported value of growth for N#Cc1c(-c2cccs2)cc(-c2cnccn2)nc1SCC(=O)Nc1ccc(Br)cc1 equal to or greater than 80%? 0

Decide: is the reported value of growth for COc1ccc(C(=O)Nc2ncc(Cc3ccccc3Cl)s2)cc1 equal to or greater than 80%? 0

Decide: is the reported value of growth for O=C(CN1CCN(c2cc(=O)n(-c3ccccc3)c3ccccc23)CC1)Nc1cccc(C(F)(F)F)c1 equal to or greater than 80%? 0

Decide: is the reported value of growth for COc1ccc(-c2nc3ccc(-c4nnc(SCC(=O)Nc5ccc(C(=O)/C=C/c6ccc(Cl)cc6)cc5)o4)cc3[nH]2)cc1 equal to or greater than 80%? 1

Decide: is the reported value of growth for Cc1ccc2c(c1)C(=O)/C(=C/c1cccc(F)c1)S2 equal to or greater than 80%? 1

Decide: is the reported value of growth for CCO/C=N/C1=C(C#N)C(c2ccc(OC)cc2)c2sc3c(CC)cccc3c2O1 (stereo not drawn) equal to or greater than 80%? 0

Decide: is the reported value of growth for O=S(=O)(NCCNc1nccc(-n2cnc3ccccc32)n1)c1ccc(C(F)(F)F)cc1 equal to or greater than 80%? 0

Decide: is the reported value of growth for COc1ccc(-c2cc(-c3ccc(Cl)cc3)c(C#N)c(=O)n2Cc2ccc(C(=O)O)cc2)cc1 equal to or greater than 80%? 0

Decide: is the reported value of growth for COc1ccc(/C=C/C(=O)c2cccc(NC(=O)CSc3nc4ccccc4c(=O)n3-c3ccccc3)c2)cc1OC equal to or greater than 80%? 1

Decide: is the reported value of growth for CCN(CC)c1cn(-c2ccc(S(N)(=O)=O)cc2)nn1 equal to or greater than 80%? 1

Decide: is the reported value of growth for Cc1ccc(C2=NN(C)C(=O)C3(CCCC3)C2)cc1 equal to or greater than 80%? 1

Decide: is the reported value of growth for Cc1cc(C)n(C(=O)c2sc(=S)n(-c3ccccc3)c2N=Nc2c(N)n[nH]c2N)n1 equal to or greater than 80%? 1

Decide: is the reported value of growth for NC(N)=Nc1ccc(Oc2cccc(Nc3ccc(Br)c(C(F)(F)F)c3)c2)cn1 equal to or greater than 80%? 0

Decide: is the reported value of growth for O=C(/C=C/c1ccc(F)cc1)c1ccc(O)cc1 equal to or greater than 80%? 1

Decide: is the reported value of growth for COc1cc(/C=C/C(=O)c2ccc(NC(=O)CSc3nnc(-c4ccc(-c5nc6ccc(Cl)cc6[nH]5)cc4)o3)cc2)cc(OC)c1OC equal to or greater than 80%? 1

Decide: is the reported value of growth for NC(N)=Nc1ccc(Oc2cccc(Nc3ccc(Cl)c(C(F)(F)F)c3)c2)cc1 equal to or greater than 80%? 0

Decide: is the reported value of growth for O=S(=O)(NC1c2ccccc2C[C@H]1O)c1ccc(Cl)cc1Cl (stereo partly drawn) equal to or greater than 80%? 1

Decide: is the reported value of growth for O=c1[nH]c2ccccc2cc1CSc1ccccc1Nc1nccc(-c2ccc(Cl)cc2)n1 equal to or greater than 80%? 1

Decide: is the reported value of growth for C[C@H]1c2[nH]c3ccccc3c2C[C@H]2C(=O)N(CCCCCCC(=O)NO)CC(=O)N21 equal to or greater than 80%? 1

Decide: is the reported value of growth for COc1cc(-c2nc(-c3ccccc3)[nH]c2-c2ccnc(NCCCNS(=O)(=O)c3cccc(F)c3)n2)ccc1Cl equal to or greater than 80%? 0
